# Tested on: HT-22
# Procedure summary: Neuroprotective activity in mouse HT22 cells assessed as reduction of t-BOOH-induced oxidative stress at 40 uM preincubated for 3 hrs followed by t-BOOH induction measured after 20 hrs by MTT assay
# Format: functional, cell-based
Active and inactive are the calls of the source. No cut-off for these calls is given here.
Labels: active, inactive

Structure notation | Target of assay | Assigned category
Oc1ccccc1O | HT-22 | active
O=C1C[C@@H](c2ccc(O)c(O)c2)Oc2cc(O)cc(O)c21 | HT-22 | active
O=c1cc(-c2ccc(O)c(O)c2)oc2cc(O)cc(O)c12 | HT-22 | active
O=c1cc(-c2ccc(O)cc2)oc2cc(O)cc(O)c12 | HT-22 | inactive
O=C1C[C@@H](c2ccc(O)cc2)Oc2cc(O)cc(O)c21 | HT-22 | inactive

====

# Test system: HT-22
# Procedure summary: Neuroprotective activity in mouse HT22 cells assessed as reduction of t-BOOH-induced oxidative stress at 40 uM preincubated for 3 hrs followed by t-BOOH induction measured after 20 hrs by MTT assay
# Assay type: functional, cell-based
Activity calls are given as the source filed them. The rule behind the calls is not given here.

Compound | Activity
COC(=O)Cc1ccc(O)c(O)c1 | Active
COC(=O)/C=C/c1ccc(O)c(O)c1 [METHYLCAFFEATE] | Active
COc1cc(/C=C/C(=O)O)ccc1O [FERULATE] | inactive
O=C(O)/C=C/c1ccc(O)c(O)c1 | inactive
O=c1c(O)c(-c2ccc(O)cc2)oc2cc(O)cc(O)c12 | inactive
Cc1ccc(O)c(O)c1 | Active
Oc1cc(O)c2c(c1)O[C@H](c1ccc(O)c(O)c1)[C@H](O)[C@H]2c1c(O)cc(O)c2c1O[C@H](c1ccc(O)c(O)c1)[C@@H](O)C2 | inactive
COC(=O)/C=C/c1ccc(O)c(OC)c1 | inactive
COc1cc(-c2oc3cc(O)cc(O)c3c(=O)c2O)ccc1O | inactive
Oc1cc(O)c2c(c1)OC(c1ccc(O)c(O)c1)C(O)C2 (stereo unspecified) | inactive
O=c1c(O)c(-c2ccc(O)c(O)c2)oc2cc(O)cc(O)c12 | Active

====

# System: HT-22
# Procedure summary: Neuroprotective activity in mouse HT22 cells assessed as reduction of glutamate-induced oxidative stress after 24 hrs by MTT assay
# Format: functional, cell-based
Calls of active or inactive are those of the source. The calls are words filed in the database; no cut-off is given here.
Labels: 1 = active, 0 = inactive

Structure notation | Assigned category
O=C1C[C@@H](c2ccc(O)c(O)c2)Oc2cc(O)cc(O)c21 | 1
COC(=O)[C@H]1O[C@@H](Oc2c(-c3ccc(O)c(O)c3)oc3cc(O)cc(O)c3c2=O)[C@H](O)[C@@H](O)[C@@H]1O | 0
O=c1c(O)c(-c2ccc(O)cc2)oc2cc(O)cc(O)c12 | 1
O=C(O)[C@H]1O[C@@H](Oc2c(-c3ccc(O)c(O)c3)oc3cc(O)cc(O)c3c2=O)[C@H](O)[C@@H](O)[C@@H]1O | 0

The reported measurements were obtained from ChEMBL document CHEMBL3120059.
